Recorded values, source PubChem BioAssay AID373.

activation values for the molecules below.
target: Sphingosine 1-phosphate receptor 3 (Homo sapiens) (UniProt Q99500); assay: human S1P3 receptor agonists, primary screen, cell-based, primary and confirmation, NFAT-BLA reporter (AID 373); conditions: S1P3 NFAT-BLA reporter cells, agonism, FRET ratio, at 4.5 µM, stronger effect = higher value, relative to 1 µM S1P, basal subtracted
Sequence (Q99500 whole entry, looked up): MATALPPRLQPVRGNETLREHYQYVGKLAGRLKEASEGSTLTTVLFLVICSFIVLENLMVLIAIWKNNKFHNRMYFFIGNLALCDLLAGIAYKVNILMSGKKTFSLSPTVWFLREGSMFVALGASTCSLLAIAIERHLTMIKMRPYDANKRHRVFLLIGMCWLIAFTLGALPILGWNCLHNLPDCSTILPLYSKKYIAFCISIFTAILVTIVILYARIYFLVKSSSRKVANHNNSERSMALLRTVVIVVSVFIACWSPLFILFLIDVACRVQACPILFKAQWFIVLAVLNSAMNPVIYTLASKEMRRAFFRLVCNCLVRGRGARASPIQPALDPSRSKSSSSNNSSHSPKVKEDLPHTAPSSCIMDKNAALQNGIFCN
Screen size: about 60,000 compounds; about 60 (0.1%) were called active. The sample as a whole holds a higher share of actives than the screen did.
Return type: number; implicit unit %.

INSERT INTO results (molecule, reported_result) VALUES
  ('CCOC(=O)c1ccc(-c2ccc(C(=O)Nc3cccnc3)o2)cc1', 0.3);

For this molecule ( CCOc1ccc(CNC(=O)C2CC(=O)N(C3CCCC3)C2)cc1OC (stereo unspecified) ), measured activation is 0.9

In plain terms, `Cc1ccc(OCC(=O)Nc2ccc(-c3nc4ncccc4o3)cc2)cc1` has a documented activation of 0.4

Looking up `COc1ccc(-c2nnc(SC(=O)N3c4ccccc4Sc4ccccc43)o2)cc1` , I see its activation listed as -1.5
